Listed below: melting point values for each entry.

COc1ccc2c(c1)c(CC(=O)Oc1cccc(CO[N+](=O)[O-])c1)c(C)n2C(=O)c1ccc(Cl)cc1 | 115 to 117 °C
NS(=O)(=O)c1ccc(-c2noc(-c3cnn4c(C5CC5)cc(-c5ccc(Cl)cc5)nc34)n2)s1 | 294 °C
O=C(Nc1csc(-c2ccncc2)n1)Nc1cccc2c1C1CCCCN1C2=O (stereo not given) | 152 °C
CCOC(=O)COc1ccc(SCc2ccc3sc(-c4ccc(C(F)(F)F)cc4)nc3c2)cc1C | 138 to 140 °C
FC(F)(F)COC(c1ccccc1)(c1ccccc1)c1ccccc1 | 111 °C

Report melting point for OC1(c2ccc(Cl)cc2)CCNC1 (stereo not given)
79 to 80 °C

Report melting point for COc1cc(CCC2OC(=O)NC2=O)ccc1OCc1nc(-c2ccccc2)oc1C (stereo not given)
194 to 195 °C

Report melting point for `Cc1nc2ccccc2n1-c1nc(Cl)nc(Cl)n1`
> 300 °C

Report melting point for COc1ccc(C2=N[C@H](c3ccccc3)[C@@H](OC(=O)Nc3ccc(Cl)c(Cl)c3)CO2)cc1 (racemic)
130 °C

Report melting point for `OCCON=Cc1cnc2ccccc2c1`
129 °C
